Ref: PubChem BioAssay (NCI)

Assay: NCI Yeast Anticancer Drug Screen. Data for the mec2-1 strain (AID 157)
Conditions: S. cerevisiae mec2-1 strain, stronger effect = higher value; at 50.0 µM unless noted
Protocol: Growth inhibition of yeast strains with defined genetic alterations is measured as a screen for potential anti-cancer activity. Selected strains with alterations in DNA damage repair or cell cycle control were exposed to compounds and growth inhibition was measured relative to vehicle treated controls. The strain used in this assay is mec2-1
Compounds without any hit were thinned out: in the full panel of roughly 79,000, 15% have a hit. Where a SMILES comes first, the peptide text is derived from it. The star is where a group is joined. Cbz = O=C(OCc1ccccc1)*; Boc = CC(C)(C)OC(=O)*; tBu = CC(C)(C)*
Note to self: values exactly at -20% are y. So growth inhibition at or above -20% is y, below is n.

Task: # bool: growth inhibition of CC(=O)Nc1cc(S(=O)(=O)O)cc2cc(S(=O)(=O)O)cc(O)c12 >= -20%
Result: y

Task: # bool: growth inhibition of CC1(C)C(=O)C=C(c2ccccc2)C1(O)c1ccccc1 (stereo unspecified) >= -20%
Result: n

Task: # bool: growth inhibition of CN(C)c1ccc(C(c2ccc(C(c3ccc(N(C)C)cc3)c3ccc(N(C)C)cc3)cc2)c2ccc(N(C)C)cc2)cc1 >= -20%
Result: y

Task: # bool: growth inhibition of CC(OC(C)(C)C)C(NC(=O)C(CCCCNC(=O)OC(C)(C)C)NC(=O)C(Cc1c[nH]c2ccccc12)NC(=O)C(Cc1ccccc1)NC(=O)OCc1ccccc1)C(=O)NC(Cc1ccccc1)C(=O)O (stereo unspecified) (Cbz-FWK(Boc)T(tBu)F-OH; configuration not given here) >= -20%
Result: y

Task: # bool: growth inhibition of CC1CCC(c2ccccc2)(c2ccccc2)C1=O (stereo unspecified) >= -20%
Result: y

Task: # bool: growth inhibition of COC(=O)C1=C2C3(O)CC4CC5C3CCC(C)N5C24C2CCCC(OC)C2C1OC(=O)c1ccccc1 (stereo unspecified) >= -20%
Result: n

---

Please provide measured growth inhibition for the entries that follow.
experiment: NCI Yeast Anticancer Drug Screen. Data for the sgs1 mgt1 strain (AID 161);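 further: 0% = growth of cultures given vehicle only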; settings: S. cerevisiae sgs1 mgt1 strain, stronger effect = higher value; at 50.0 µM unless noted
The panel holds about 79,000 compounds, 15% with a hit somewhere; the sample as a whole holds those more often.
Your answer is read as %, so omit the unit and give the number.

Task: Please list growth inhibition recorded for the compound CCNc1cccc(C)c1
Result: -16.2

Task: Please list growth inhibition recorded for the compound O=C(/C=C/c1ccccc1)CSc1ncn[nH]1
Result: 8.7

Task: Please list growth inhibition recorded for the compound O=C1N=C2Sc3ccc4ccccc4c3N2C1=O
Result: 24.1

Task: Please list growth inhibition recorded for the compound COc1cc(C(CC(=O)O)C(=O)O)c([N+](=O)[O-])cc1OC (stereo unspecified)
Result: 2.2

Task: Please list growth inhibition recorded for the compound CCN(CC)c1ccc2cc(-c3csc(-c4ccc(N(C)C)cc4)n3)c(=O)oc2c1
Result: -5.25

Task: Please list growth inhibition recorded for the compound Cc1ccc(-c2c3ccccc3cc3ccccc23)c(C)c1
Result: -1.5

Task: Please list growth inhibition recorded for the compound CCCCN(CCCC)C(=N)c1ccccc1C
Result: 10.9

Task: Please list growth inhibition recorded for the compound CC1CC(C)(O)C2C3(C)CCCC2(COC3=O)C12CCC1(CCOC1=O)O2 (stereo unspecified)
Result: 25.3

Task: Please list growth inhibition recorded for the compound CCCOC(=O)c1ccc([N+](=O)[O-])cc1
Result: 14.2

Task: Please list growth inhibition recorded for the compound COc1ccc2nc3cccc([N+](=O)[O-])c3c(NC(C)CN(C)C)c2c1 (stereo unspecified)
Result: 54.1

Task: Please list growth inhibition recorded for the compound COC1COCOC1C(OC)C1OCOCC1OC (stereo unspecified)
Result: -8.15

Task: Please list growth inhibition recorded for the compound Cc1nc(SCC(=O)Nc2ccccc2)c2sc(=S)n(-c3ccccc3)c2n1
Result: -0.05

Task: Please list growth inhibition recorded for the compound CN1C2=NCCN2C(=O)c2cc(Cl)ccc21
Result: 15.6

Task: Please list growth inhibition recorded for the compound O=[N+]([O-])c1ccc(Sc2ncnc3c2ncn3C2OC(CO)C(O)C2O)c2nonc12 (stereo unspecified)
Result: -2.4

Task: Please list growth inhibition recorded for the compound O=C(Nc1ccc(Cl)cc1Cl)c1cc2nc3ccccc3c(=O)n2c2ccccc12
Result: 12.1

Task: Please list growth inhibition recorded for the compound COc1cc(C(=O)N2CCOC23CCN(Cc2ccccc2)CC3)cc(OC)c1OC
Result: -7.8

Task: Please list growth inhibition recorded for the compound COc1ccc2[nH]c3ccccc3c(=O)c2c1
Result: 8.8

Task: Please list growth inhibition recorded for the compound O=C(O)/C=C/C(=O)NCCCCCCNC(=O)/C=C/C(=O)O
Result: 2

Task: Please list growth inhibition recorded for the compound CC(=O)OCC1COC(c2ccc(C)cc2)O1 (stereo unspecified)
Result: -13.8

Task: Please list growth inhibition recorded for the compound CCC1NC(=O)C1NC(=O)OC (stereo unspecified)
Result: 22.6

Task: Please list growth inhibition recorded for the compound CC1=CCC2C(C)(C)CCCC2(C)C1COC1OC(OCC2C(C)=CCC3C(C)(C)CCCC23C)C2C1=CCC1C(C)(C)CCCC21C (stereo unspecified)
Result: 84.1
